tested on: LTB4 biosynthesis in human polymorphonuclear leukocytes (PMNs); experiment: Inhibition of LTB4 biosynthesis in human polymorphonuclear leukocytes (PMNs); format: cell-based; details: Homo sapiens, Leukocyte, Table 1A, Esters; LTB4, A23187-stimulated human PMNs
Measured IC50 by item
Give the figure together with its unit, number first.

// solved cases for IC50 follow
QUERY: Provide IC50, recorded with LTB4 biosynthesis in human polymorphonuclear leukocytes (PMNs), of CCOC(=O)C(C)(Cc1ccccc1)Nc1nc2ccccc2s1 (stereo not shown) [Compound 38]
RESULT: 200 nM

QUERY: Provide IC50, recorded with LTB4 biosynthesis in human polymorphonuclear leukocytes (PMNs), of CCOC(=O)C(C)(Cc1ccccc1)Nc1nc2ccccc2o1 (stereo not shown) [Compound 39]
RESULT: 76 nM

QUERY: Provide IC50, recorded with LTB4 biosynthesis in human polymorphonuclear leukocytes (PMNs), of CCOC(=O)C(CCc1ccccc1)Nc1nc2ccccc2s1 (stereo not shown) [Compound 37]
RESULT: 520 nM

Now examine the next entry.
QUERY: Provide IC50, recorded with LTB4 biosynthesis in human polymorphonuclear leukocytes (PMNs), of CCOC(=O)C(Cc1ccccc1)N(C)c1nc2ccccc2s1 (stereo not shown) [Compound 36]
RESULT: 1000 nM
